Molecular target: human GluN1/GluN2B NMDA receptors (Homo sapiens)
Construct: expressed in transfected cells
Sequence (Q13224 27-1484, other chains not shown): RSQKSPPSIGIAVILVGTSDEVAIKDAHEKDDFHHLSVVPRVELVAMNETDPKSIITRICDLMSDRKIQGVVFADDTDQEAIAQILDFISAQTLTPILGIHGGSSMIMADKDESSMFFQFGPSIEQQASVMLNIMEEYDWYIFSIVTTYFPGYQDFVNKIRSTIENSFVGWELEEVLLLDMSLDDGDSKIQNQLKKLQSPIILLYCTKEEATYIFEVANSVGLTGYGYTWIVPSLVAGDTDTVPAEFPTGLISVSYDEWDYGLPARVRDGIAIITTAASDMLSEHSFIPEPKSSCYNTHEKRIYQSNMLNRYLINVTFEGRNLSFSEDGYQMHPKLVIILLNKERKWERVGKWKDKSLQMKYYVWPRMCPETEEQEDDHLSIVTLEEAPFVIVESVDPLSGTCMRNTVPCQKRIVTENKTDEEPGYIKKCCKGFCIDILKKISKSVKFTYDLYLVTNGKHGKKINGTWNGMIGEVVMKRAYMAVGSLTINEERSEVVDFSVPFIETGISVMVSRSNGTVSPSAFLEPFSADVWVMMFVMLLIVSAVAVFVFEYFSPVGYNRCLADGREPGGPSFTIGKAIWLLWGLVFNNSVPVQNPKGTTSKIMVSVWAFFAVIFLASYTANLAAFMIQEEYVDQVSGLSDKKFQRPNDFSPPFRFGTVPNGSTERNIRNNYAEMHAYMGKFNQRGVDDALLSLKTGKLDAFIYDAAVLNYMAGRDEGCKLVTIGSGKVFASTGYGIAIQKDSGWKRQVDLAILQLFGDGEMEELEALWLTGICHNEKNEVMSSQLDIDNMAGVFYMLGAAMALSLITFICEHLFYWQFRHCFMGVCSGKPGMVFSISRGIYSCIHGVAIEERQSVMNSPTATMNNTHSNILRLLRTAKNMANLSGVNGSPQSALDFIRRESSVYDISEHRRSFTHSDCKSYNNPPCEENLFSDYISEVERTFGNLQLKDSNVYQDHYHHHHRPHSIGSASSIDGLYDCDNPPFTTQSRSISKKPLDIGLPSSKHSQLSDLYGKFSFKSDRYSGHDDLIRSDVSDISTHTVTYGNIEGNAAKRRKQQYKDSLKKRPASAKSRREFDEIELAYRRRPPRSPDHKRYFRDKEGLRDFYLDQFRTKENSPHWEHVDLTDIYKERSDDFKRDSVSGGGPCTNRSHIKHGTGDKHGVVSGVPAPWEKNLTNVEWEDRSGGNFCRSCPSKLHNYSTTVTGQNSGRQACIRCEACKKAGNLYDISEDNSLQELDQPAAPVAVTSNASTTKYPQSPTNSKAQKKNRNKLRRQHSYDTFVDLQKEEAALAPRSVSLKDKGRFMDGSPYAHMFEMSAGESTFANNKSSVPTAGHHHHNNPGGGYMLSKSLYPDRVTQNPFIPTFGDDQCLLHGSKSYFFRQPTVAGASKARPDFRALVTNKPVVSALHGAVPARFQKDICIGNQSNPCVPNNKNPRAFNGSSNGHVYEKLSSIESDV
Assay: Cell-based calcium flux (FLIPR) assay on cloned human NR1/NR2B ion channels expressed in mammalian cells (standard and HTS buffer variants);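 further: stable Tet-On inducible cell line, Ca2+ influx triggered by glutamate at about EC40 plus 10 µM glycine, fluorescent dye read-out over 5 min, normalized to control wells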
Details: standard assay buffer (0.5 mM MgCl2 dye loading; 137 mM NaCl, 4 mM KCl assay buffer), human GluN1/GluN2B cells, read-out: NR2B IC50 (μM) standard assay
READOUT TYPE: IC50 (µM)

ENTRY SMILES | IC50 [µM]
Cc1ccc(C(F)(F)F)cc1-c1cnc2[nH]c(=O)n(CCN3CC(F)C3)c2c1 | 2.13

[a] CN(C)C(=O)Cn1c(=O)n(C)c2ncc(-c3ccc(CO)s3)cc21
[b] Cn1cc(Cn2c(=O)[nH]c3ncc(-c4ccc(F)cc4)cc32)cn1
[c] COc1ccc(-c2cnc3[nH]c(=O)n(CC(=O)N4CCOCC4)c3c2)cc1
[d] O=C(Cn1c(=O)[nH]c2ncc(-c3cccc(C(F)(F)F)c3)cc21)N1CCCC1
Order the records, beginning with the lowest IC50 and ending with the highest. Please respond with the labels ordered as the question requires. d, b, a, c
(d: 0.033 µM, b: 0.204 µM, a: 1.7 µM, c: 2.74 µM)
